system: Wild type; assay: S. aureus survival, RN4220 and DeltatarO strains – OD600, teichoic acid synthesis inhibitors, primary screen (AID 463173); conditions: S. aureus RN4220 wild type/DeltatarO growth, OD600, 18 h, screened at 18.75 µg/mL (by protocol)
Among all 52,000 compounds or so, about 1,700 (3.3%) were called active. No stated cut-off is given here; in the data, active means survival mostly below about 52% (no sharp cut-off); inactive means mostly above about 56%. The list comes from a sample in which actives are over-represented; it also holds close analogues and randomly drawn compounds.
Outcomes: active, inactive

{"columns": ["Compound", "Class label"],
 "data": [
  ["CC(C)/C=N/NC(=O)c1ccc2c(c1)NC(=O)C(C)(C)O2", "inactive"],
  ["CCCn1c2ccccc2c2cnn(CC(=O)NCCc3ccc(C)cc3)c(=O)c21", "inactive"],
  ["COc1cccc(-c2cc(C(=O)NCc3ccc(F)cc3)no2)c1", "inactive"],
  ["CCCNC(=O)Cn1ncc2c3ccccc3n(CCC)c2c1=O", "inactive"],
  ["COc1ccc(-c2cc(C(F)(F)F)nc(NCCc3ccccc3)n2)cc1", "active"],
  ["COc1cc2c(c(OC)c1)C(c1cccc(F)c1F)CC(=O)N2 (stereo unspecified)", "inactive"]
]}

====

test system: Wild type; assay: S. aureus survival, RN4220 and DeltatarO strains – OD600, teichoic acid synthesis inhibitors, primary screen (AID 463173); conditions: S. aureus RN4220 wild type/DeltatarO growth, OD600, 18 h, active compounds read low, screened at 18.75 µg/mL (by protocol)
Out of some 52,000 compounds screened, about 1,700 (3.3%) were called active. What follows is part of a selection rich in actives, with near analogues and random picks from the rest.
Each record is given fulfilled if its reported survival is strictly below 60%. Records at or above 60% are given not fulfilled.

{"columns": ["Compound", "Class label"],
 "data": [
  ["CCOC(=O)c1ccc(N2C(=O)c3n[nH]c(C)c3C2c2cccc(Br)c2)cc1 (stereo not drawn)", "fulfilled"],
  ["COc1cccc(C(=O)N(Cc2ccco2)c2ccccn2)c1", "not fulfilled"],
  ["COc1ccc(/C=C/c2nc(-c3ccccc3O)n(-c3ccccc3)n2)cc1OC", "fulfilled"],
  ["COc1ccc(-c2nc(SCC(=O)Nc3ccc4c(c3)OCCO4)c(-c3ccc(F)cc3)[nH]2)cc1OC", "not fulfilled"],
  ["Cc1ccc(-c2c(C(=O)NCc3ccc(F)cc3)oc(=O)c3ccccc23)cc1", "not fulfilled"],
  ["Cc1cc(C)cc(Nc2cc(C(=O)NCCCN(Cc3ccccc3)C(C)C)c3ccccc3n2)c1", "fulfilled"],
  ["COc1cc2c(-c3ccccc3Cl)nc3c(c(C)nn3-c3ccccc3)c2cc1OC", "not fulfilled"],
  ["CCn1c(=O)c2cc(C(=O)NCCCN3CCN(C)CC3)sc2c2ccccc21", "not fulfilled"],
  ["COc1cccc2sc(N(Cc3cccnc3)C(=O)Cc3ccccc3)nc12", "not fulfilled"],
  ["Cc1nc(C)c(C(=O)N/N=C/c2ccc(O)cc2O)cc1C(=O)N/N=C/c1ccc(O)cc1O", "not fulfilled"],
  ["O=C(Cn1c(=O)n(Cc2ccccc2)c(=O)c2sc3ccccc3c21)NCc1ccccc1Cl", "not fulfilled"],
  ["CCCCN(C)CCCNC(=O)c1cc(-c2ccc(Br)s2)nc2ccccc12", "fulfilled"],
  ["Cc1ccc(C(=O)N/C(=C/c2ccco2)C(=O)Nc2nccs2)cc1", "not fulfilled"],
  ["CC(=O)c1cc(-c2ccc(F)cc2)n(CC(=O)Nc2cc(C)cc(C)c2)c1C", "not fulfilled"],
  ["CCOc1ccccc1Nc1sc(C(=O)c2ccc(Cl)cc2)c(N)c1S(=O)(=O)c1ccccc1", "fulfilled"],
  ["CCCCN(C)CCNC(=O)c1cc(-c2ccc(Cl)s2)nc2ccccc12", "not fulfilled"],
  ["Cc1ccccc1Cn1c(=O)n(CCc2ccccc2)c(=O)c2ccccc21", "fulfilled"]
]}

====

test system: Wild type; assay: S. aureus survival, RN4220 and DeltatarO strains – OD600, teichoic acid synthesis inhibitors, primary screen (AID 463173); details: S. aureus RN4220 wild type/DeltatarO growth, OD600, 18 h, active compounds read low, screened at 18.75 µg/mL (by protocol)
About 1,700 (3.3%) of roughly 52,000 compounds were called active. This excerpt belongs to a sample that is enriched for actives.

{"columns": ["Molecule", "Quantity unit", "survival"],
 "data": [
  ["CCc1ccc(-c2nc(CN3CCCC(C(=O)NCc4ccc(C)cc4)C3)c(C)o2)cc1 (stereo not drawn)", "%", 88],
  ["Cc1ccc(C(=O)Nc2ccc(-c3nc4ccccc4s3)c(O)c2)c(C)c1", "%", 91],
  ["CCCCN(CC)CCNC(=O)c1cn(CCOC)c(=O)c2c1c1ccccc1n2C", "%", 89]
]}

====

compounds and their reported survival
test system: Wild type; test: S. aureus survival, RN4220 and DeltatarO strains – OD600, teichoic acid synthesis inhibitors, primary screen (AID 463173); details: S. aureus RN4220 wild type/DeltatarO growth, OD600, 18 h, active compounds read low, screened at 18.75 µg/mL (by protocol)
Among all 52,000 compounds or so, about 1,700 (3.3%) were called active. For the sample, actives were picked, then their nearest neighbours and some compounds at random.

{"columns": ["Compound", "survival / %"],
 "data": [
  ["CC1Cc2ccccc2N1S(=O)(=O)c1nnc(NC(=O)c2ccccc2)s1 (centres undefined)", 18],
  ["COc1ccc(OCC(=O)Nc2nnc(S(=O)(=O)N3CCc4ccccc43)s2)cc1", 73],
  ["Cc1cccc(C(=O)Nc2nnc(S(=O)(=O)N3c4ccccc4CC3C)s2)c1 (centres undefined)", 21],
  ["CCOC(=O)c1c(NC(=O)c2noc3c2CC(C(C)(C)C)CC3)sc2c1CCCC2 (centres undefined)", 88]
]}

====

test system: Wild type; experiment: S. aureus survival, RN4220 and DeltatarO strains – OD600, teichoic acid synthesis inhibitors, primary screen (AID 463173); conditions: S. aureus RN4220 wild type/DeltatarO growth, OD600, 18 h, active compounds read low, screened at 18.75 µg/mL (by protocol)
Hit rate of the full screen: of about 52,000 compounds, about 1,700 (3.3%) were called active. The list comes from a sample in which actives are over-represented; it also holds close analogues and randomly drawn compounds.
Each record is given True if its reported survival is strictly below 80%. Records at or above 80% are given False.

{"columns": ["Compound", "Tested on", "Class label"],
 "data": [
  ["COc1ccc(Br)cc1CNC(=O)c1cc(=O)[nH]c2ccc(S(=O)(=O)N3CCCCC3C)cc12 (configuration not stated)", "Wild type", "False"],
  ["Cn1cccc1-c1cc2n(n1)CCC(=O)N2CC(=O)Nc1ccc(F)cc1Cl", "Wild type", "True"],
  ["O=C(NCc1ccccc1Cl)c1cc(=O)[nH]c2ccc(S(=O)(=O)N3CCCCC3)cc12", "Wild type", "False"],
  ["CCOC(=O)CCc1c(C)nc2c(-c3ccccc3)c(C)[nH]n2c1=O", "Wild type", "True"],
  ["CCN(C(=O)CSc1nc2ccccc2n1CC(=O)Nc1cccc(C#N)c1)c1ccccc1", "Wild type", "False"],
  ["CCc1c(C)nc2cc(-c3ccccc3)[nH]n2c1=O", "Wild type", "False"],
  ["COc1ccccc1CCNC(=O)Cn1ccc2cc(S(=O)(=O)N3CCCCC3)ccc21", "Wild type", "False"],
  ["CCCCCCC1CC=C(C(=O)O)CC1 (configuration not stated)", "Wild type", "False"],
  ["COc1ccc(C(C)=O)cc1CSc1nc(NCCc2ccccc2)c2ccccc2n1", "Wild type", "True"],
  ["Cc1ccc(Cc2c(C)nc3c(-c4ccccc4)c(C)[nH]n3c2=O)cc1", "Wild type", "True"],
  ["CCc1ccc(CNc2nc3nc(C)c(Cc4ccccc4)c(=O)n3[nH]2)cc1", "Wild type", "False"],
  ["Cc1ccc(NC(=O)CSc2nc3ccccc3n2CC(=O)N2CCC(C)CC2)cc1C", "Wild type", "True"],
  ["COc1ccc(C(C)=O)cc1CSc1nc(NCc2ccccc2)c2ccccc2n1", "Wild type", "False"],
  ["CN1CC2(C)CN(C(=O)c3ccccc3Cl)CC(C)(C1)C2", "Wild type", "False"],
  ["Cc1ccccc1Cc1c(C)nc2c(-c3ccccc3)c(C)[nH]n2c1=O", "Wild type", "True"],
  ["CC1CCN(C(=O)c2cccc(Cl)c2)CC1", "Wild type", "False"],
  ["CCOc1cc(CNC(=O)CSc2n[nH]c(-c3ccccc3)n2)cc(OCC)c1OCC", "Wild type", "False"],
  ["CC1(c2ccccc2)CC(C)(C)N(C(=O)c2cccc(Cl)c2)c2ccccc21 (configuration not stated)", "Wild type", "True"],
  ["CCN(C(=O)CSc1nc2ccccc2n1CC(=O)Nc1ccccc1C)c1ccccc1", "Wild type", "True"],
  ["CCN(CC)C(=O)Cn1c(SCC(=O)Nc2ccc(C)c(C)c2)nc2ccccc21", "Wild type", "False"],
  ["Cc1ccc(NC(=O)c2ccc(Br)cc2)c(C(=O)c2ccccc2)c1", "Wild type", "True"],
  ["Cc1nc2nc(NCc3ccccc3Cl)[nH]n2c(=O)c1Cc1ccccc1", "Wild type", "False"],
  ["Cc1cccc(Cc2c(C)nc3c(-c4ccccc4)c(C)[nH]n3c2=O)c1", "Wild type", "True"],
  ["CC1CCN(c2ccc(NC(=O)c3cccc(Cl)c3)cc2C(=O)O)CC1", "Wild type", "True"],
  ["CCCCCCC1CCC(C(=O)NC(C(=O)O)C(C)C)CC1 (configuration not stated)", "Wild type", "True"]
]}

The reported numbers originate from PubChem BioAssay AID463173.
